- subject_of_test: T1, Activin A (human, UniProt P08476 311-426)
- T1 construct: Homodimer of two βA subunits; bought from R&D Systems (#338-AC); also called inhibin-βA dimer; human Activin A
- T1 sequence: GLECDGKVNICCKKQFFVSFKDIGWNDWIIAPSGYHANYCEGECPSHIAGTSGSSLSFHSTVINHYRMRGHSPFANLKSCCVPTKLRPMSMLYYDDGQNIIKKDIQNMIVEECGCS
- experimental_details: SPR, captured mAb, 37C
Please go through the items and note down their t1/2.
Numbers only, in min.

binder	measured_metric	result_units	value
H4H10424P (antibody, human IgG4, V domains shown) VH: QVQLVESGGGVVQPGRSLRLSCAASGFTFSSYGMHWVRQAPGKGLEWVAVIWYDGSNKYNADSVKGRFTISRDNSKNTVYLQMNSLRAEDTAVYYCARARNYDILTGYYNLGMDVWGQGTTVTVSS VL: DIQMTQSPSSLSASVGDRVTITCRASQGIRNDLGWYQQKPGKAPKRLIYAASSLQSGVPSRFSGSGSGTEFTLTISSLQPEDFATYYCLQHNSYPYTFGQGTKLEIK	t1/2	min	3
H4H10426P (antibody, human IgG4, V domains shown) VH: EVQLVESGGNLVQSGRSLRLSCTASGFAFDDFAMHWVRQVPGKGLEWVSGISWNSDTIGYADSVKGRFTISRDNAQNSLFLQMDSLRAEDTALYYCVKDMVRGLIGYYYYGMDVWGQGTTVTVSS VL: EIVLTQSPAILSLSPGERAILSCRASQSIYTYLSWYQQTPGRAPRLLIYETSSRATGIPARFIGSGSGTDFTLTISSLEPEDFAFYYCQHRSDWPPTFGQGTKLEIK	t1/2	min	6

Next item in the queue.
Consider the binder H4H10430P (antibody, human IgG4, V domains shown, also called H4H1430P; H4H10430P2) VH: EVQLVESGGGLVQPGRSLRLSCKASGFAFDDFAMHWVRQAPGKGLEWVSGIVWNSGDIGYADSVKGRFTISRDNAKNSLYLQLNSLRTEDTALYFCVKDMVRGLMGFNYYGMDVWGQGTTVTVSS VL: EIVLTQSPATLSLSPGERATLSCRASQTISTYLVWYRQRPGQAPSLLIYDASNRATDIPARFSGSGSGTDFTLTISSLEPEDFAVYYCQQRSNWPITFGQGTRLEIK and give its measured t1/2.
76.5
